Numbers sourced from ChEMBL document CHEMBL3351562.

Recorded measurements of IC50, one per entry
Protocol: Inhibition of Brucella suis histidinol dehydrogenase assessed as NADH released as a by-product preincubated for 5 min at 30 degC by spectrophotometric method

Smiles repr: Cc1ccc(CC(=O)[C@@H]2Cc3cncn3C(=S)N2)cc1
IC50, µM: 95
//
Smiles repr: N[C@@H](Cc1c[nH]cn1)C(=O)Cc1ccc(-c2ccccc2)cc1
IC50, µM: 0.012
//
Smiles repr: CCCCCc1ccc(C#Cc2ccc(CC(=O)[C@@H]3Cc4cncn4C(=S)N3)cc2)cc1
IC50, µM: 322

###

Protocol: Inhibition of Brucella suis histidinol dehydrogenase assessed as NADH released as a by-product preincubated for 5 min at 30 degC by spectrophotometric method

Smiles repr: O=C(Cc1ccc(-c2ccccc2)cc1)[C@@H]1Cc2cncn2C(=S)N1
Measure unit: µM
IC50: 5
//
Smiles repr: O=C(Cc1ccc(-c2ccccc2)cc1)[C@@H]1Cc2cncn2C(=O)N1
Measure unit: µM
IC50: 86
//
Smiles repr: CCCCCc1ccc(C#Cc2ccc(CC(=O)[C@@H]3Cc4cncn4C(=O)N3)cc2)cc1
Measure unit: µM
IC50: 175
//
Smiles repr: CCCCCc1ccc(C#Cc2ccc(CC(=O)[C@@H](N)Cc3c[nH]cn3)cc2)cc1
Measure unit: µM
IC50: 0.009
//
Smiles repr: COC(=O)[C@@H]1Cc2cncn2C(=O)N1
Measure unit: µM
IC50: 532
